Every entry's value here was drawn from ChEMBL document CHEMBL1201862.

test system: MDA-MB-231; assay: NCI tumour cell line growth inhibition, 48 h
Calls of active or inactive are those of the source. Cut-off read from the data, not from the text of the source: active = GI50 up to about 1.1 µM and inactive = higher.
measured-quantity: GI50

Take a look at these entries with their results.
>  <molecule>
O=C(O)CCC(=O)OC1N=C(c2ccccc2Cl)c2cc([N+](=O)[O-])ccc2NC1=O (configuration not stated)

>  <target>
MDA-MB-231

>  <GI50>
> 100 µM (inactive)

$$$$
>  <molecule>
Cn1c(=O)c2nc[nH]c2n(C)c1=O

>  <target>
MDA-MB-231

>  <GI50>
> 100 µM (inactive)

$$$$
>  <molecule>
COc1nc(C#CC2(O)CCCCC2)nc(OC)n1

>  <target>
MDA-MB-231

>  <GI50>
3.34 µM (inactive)

$$$$
>  <molecule>
CN(C)C1(c2cc3ccccc3s2)CCCCC1

>  <target>
MDA-MB-231

>  <GI50>
65.6 µM (inactive)

$$$$
>  <molecule>
Cn1c(-c2cccs2)cc(-c2ccsc2)c1-c1cccs1

>  <target>
MDA-MB-231

>  <GI50>
99.1 µM (inactive)

$$$$

Please report GI50 for every entry that follows.
1. O=c1[nH]/c(=C/c2ccc(OCc3ccccc3)cn2)c(=O)[nH]/c1=C/c1ccc([N+](=O)[O-])cc1
2. Oc1cccc(-c2nc3cc(F)ccc3s2)c1
3. CCC1C(=O)OCc2c1cc1n(c2=O)Cc2cc3ccccc3nc2-1 (configuration not stated)
4. CC(C)(C)OC(=O)N(CCCCNC(=O)OCc1ccccc1)CCCNC(=O)OCc1ccccc1
5. CCOC(=O)c1csc(-c2cn(C)c3c2C(=O)C(OC)=CC3=O)n1

1: > 89.3 µM (inactive); 2: 15.9 µM (inactive); 3: > 100 µM (inactive); 4: 90.2 µM (inactive); 5: 18.3 µM (inactive)

// batch mode: one GI50 value per listed entry
1. O=C1C=C2CCC[C@H]3OC(=O)C[C@@]23CC1
2. CN(C)CC1CCC/C(=C\c2ccc(N(C)C)cc2)C1=O (configuration not stated)
3. CC(=O)OCC1OC(n2c3c(cc(C#N)c2=S)CCCC3)C(OC(C)=O)C(OC(C)=O)C1OC(C)=O (configuration not stated)
4. CC(C)=CCC12Cc3ccc(O)cc3C(C(C)CN1)C2C (configuration not stated)

["> 100 µM (inactive)", "4.78 µM (inactive)", "> 100 µM (inactive)", "> 100 µM (inactive)"]
